Measured on: human BACE1 (Homo sapiens, UniProt P56817)
Sequence (P56817 46-501): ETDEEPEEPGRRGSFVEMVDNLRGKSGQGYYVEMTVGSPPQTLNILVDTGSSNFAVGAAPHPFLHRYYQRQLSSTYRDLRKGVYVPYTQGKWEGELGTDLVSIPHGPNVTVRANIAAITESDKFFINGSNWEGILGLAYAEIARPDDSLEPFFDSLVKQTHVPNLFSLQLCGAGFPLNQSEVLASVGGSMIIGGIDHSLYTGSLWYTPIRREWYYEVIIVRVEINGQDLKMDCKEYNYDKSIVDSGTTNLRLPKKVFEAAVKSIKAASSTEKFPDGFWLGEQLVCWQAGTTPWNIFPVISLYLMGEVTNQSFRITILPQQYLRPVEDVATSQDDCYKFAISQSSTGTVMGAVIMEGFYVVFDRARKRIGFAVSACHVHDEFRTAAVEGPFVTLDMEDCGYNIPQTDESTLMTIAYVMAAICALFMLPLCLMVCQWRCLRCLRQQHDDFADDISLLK
Assay summary: BACE1 fluorescent kinetic assay (cleavage of peptide substrate WABC-6)
Assay type: biochemical
Run conditions: Activity Table, Examples 1-108; 10 nM enzyme, 25 μM substrate WABC-6, pH 4.5, room temperature
Observed property: IC50

Known IC50 results, listed for orientation:
>  <Compound>
CN1C(=O)[C@@](c2ccc(OC(F)F)cc2)(c2ccc(F)c(C#CCCF)c2)N=C1N

>  <Observed property>
IC50

>  <Measurement>
< 100 nM

$$$$
>  <Compound>
CN1C(=O)C(c2ccc(OC(F)F)cc2)(c2cccc(NC(=O)C(Cl)(Cl)Cl)c2)N=C1N (centres unmarked)

>  <Observed property>
IC50

>  <Measurement>
< 100 nM

$$$$
>  <Compound>
CN1C(=O)C(c2ccc(OC(F)F)cc2)(c2cccc(NC(=O)C3CC3)c2)N=C1N (centres unmarked)

>  <Observed property>
IC50

>  <Measurement>
110 to 1000 nM

$$$$
>  <Compound>
CCCNCc1cccc(C2(c3ccc(OC(F)F)cc3)N=C(N)N(C)C2=O)c1 (centres unmarked)

>  <Observed property>
IC50

>  <Measurement>
110 to 1000 nM

$$$$
>  <Compound>
C/C=C/c1cc(C2(c3ccc(OC(F)F)cc3)N=C(N)N(C)C2=O)ccc1F (centres unmarked) [Example 75C]

>  <Observed property>
IC50

>  <Measurement>
> 1000 nM

$$$$
>  <Compound>
CN1C(=O)[C@](c2ccc(OC(F)F)cc2)(c2ccc(F)c(C#CCCF)c2)N=C1N

>  <Observed property>
IC50

>  <Measurement>
> 1000 nM

$$$$

Each compound below has a recorded value; state its IC50.
1. CN1C(=O)C(c2ccc(OC(F)F)cc2)(c2cccc(C3CC(CCF)C3)c2)N=C1N (centres unmarked)
2. CN1C(=O)[C@@](c2ccc(OC(F)F)cc2)(c2cccc(C#CCCCF)c2)N=C1N [Example 19E]

["110 to 1000 nM", "< 100 nM"]
